The measurements presented in this section are drawn from paper PMC4242493.

Catalogue of binding signal values
# tgt: MaxL homodimer (Homo sapiens, UniProt P61244 1-160)
# Sequence (P61244 whole entry): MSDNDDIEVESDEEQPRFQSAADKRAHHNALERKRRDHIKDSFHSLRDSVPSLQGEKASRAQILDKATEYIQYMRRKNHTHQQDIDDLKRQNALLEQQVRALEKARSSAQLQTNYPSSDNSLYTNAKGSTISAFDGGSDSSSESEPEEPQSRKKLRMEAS
# testDetails: universal protein-binding microarray (PBM); PBS-based mixture, 10 nM His-tagged protein dimer, 2% milk, 200 ng/uL BSA, 50 ng/uL salmon testes DNA, 0.02% TX-100; detection with Alexa 488 anti-His antibody;; high values mean tight binding;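 further: fluorescence intensity normalized to that of the highest-ranked 8-mer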
# measurementSetup: protein: recombinant; tags: C-terminal His-tag (pET21a); chain copies: 2; dsDNA, one strand shown
Whole data set: some 33,000 sequences, median “normalized occupancy” near 0.075, cut for the highest 2% near 0.095. Shown is part of a subset that was picked to be rich in the highest values.
Answer format: numeric, normalized occupancy implied, no suffix.

Here is how some sequences turned out for binding signal.
ATAACATA; 0.0882
CGCGCGCC; 0.0783
ACAACATC; 0.0778
ACACGCGG; 0.143
ACCGTGCG; 0.0828
TCCTAAGA; 0.0773
CACCATGC; 0.108
TATTCCGA; 0.072
AACCATGC; 0.106
GACATTAC; 0.0843

Q: Return reported binding signal; argument: ACCAGAAC
Ans: 0.0763

Q: Return reported binding signal; argument: AACGCGCA
Ans: 0.078

Q: Return reported binding signal; argument: CACGCGCC
Ans: 0.116

Q: Return reported binding signal; argument: CCACACCA
Ans: 0.0899

Q: Return reported binding signal; argument: AATTCGAG
Ans: 0.0732

Q: Return reported binding signal; argument: AGGCGTTC
Ans: 0.0755

Q: Return reported binding signal; argument: CTCCATGA
Ans: 0.0798

Q: Return reported binding signal; argument: AGCGTGCG
Ans: 0.109

Q: Return reported binding signal; argument: CGCGCGCA
Ans: 0.075

Q: Return reported binding signal; argument: ACAGGTGA
Ans: 0.084

Q: Return reported binding signal; argument: ACCACAAA
Ans: 0.0758

Q: Return reported binding signal; argument: CCACGCCA
Ans: 0.0991

Q: Return reported binding signal; argument: ATAACACA
Ans: 0.0874

Q: Return reported binding signal; argument: CACACATA
Ans: 0.0896

Q: Return reported binding signal; argument: AGCCCTCC
Ans: 0.0723

Q: Return reported binding signal; argument: GGCGTGCA
Ans: 0.0978

====

# tgt: MaxL homodimer (Homo sapiens, UniProt P61244 1-160)
# testDetails: universal protein-binding microarray (PBM); PBS-based mixture, 10 nM His-tagged protein dimer, 2% milk, 200 ng/uL BSA, 50 ng/uL salmon testes DNA, 0.02% TX-100; detection with Alexa 488 anti-His antibody;; high values mean tight binding;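 further: fluorescence intensity normalized to that of the highest-ranked 8-mer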
# measurementSetup: protein: recombinant; tags: C-terminal His-tag (pET21a); chain copies: 2; dsDNA, one strand shown
Over roughly 33,000 sequences, “normalized occupancy” has its median near 0.075; the highest 2% begin near 0.095. Many of the other results were omitted from the sample, so the highest values are more common in it than they were.
propertyLabel: binding signal (normalized occupancy)
Answer format: numeric, normalized occupancy implied, no suffix.

GTCACTAA; 0.0757
CGAGGTGA; 0.0813
AATTCACA; 0.0775
GTATTGAC; 0.0759
CACCTGAG; 0.0741

Q: Reported binding signal for MaxL homodimer (Homo sapiens, UniProt P61244 1-160), given CCGCCACC ?
Ans: 0.0762

Q: Reported binding signal for MaxL homodimer (Homo sapiens, UniProt P61244 1-160), given CACCTGGC ?
Ans: 0.103

Q: Reported binding signal for MaxL homodimer (Homo sapiens, UniProt P61244 1-160), given CACCTGGG ?
Ans: 0.0841
